test system: LOX IMVI melanoma; assay: NCI tumour cell line growth inhibition, 48 h
Each item that follows carries a reported TGI.
measure-name: TGI

* Cc1ccc(CN(C)c2ccc(CO)c(Cl)c2)cc1 | > 52.7 µM
* c1ccc2nc(N/N=C3\CCCCC3C3CCCCC3)ccc2c1 (stereo unspecified) | 13.1 µM
* COc1ccc(OC)c(C#N)c1C#N (tested in a mixture with another compound) | > 100 µM
* C=CCCCCNC(=O)C[C@@H]1C2=C(CC[C@H]1O[Si](C)(C)C(C)(C)C)N1C(=O)CCC/C=C\C1C2 (stereo partly specified) | 31.4 µM
* Cc1ccc(C2=NN(c3ccc(S(C)(=O)=O)cc3)C(=O)CC2)cc1 | > 100 µM
* NS(=O)(=O)c1cc2c(cc1Cl)NC(/C(=N/NC(=O)c1ccncc1)C1C(=O)NC(=O)NC1=O)=NS2(=O)=O | > 100 µM
* ONCCCn1cnc2c(NC3CC3)ncnc21 | > 100 µM
* CC(C)(C)OC(=O)NC(CSCc1ccc(C(=O)c2ccccc2)cc1)C(=O)O (stereo unspecified) | > 100 µM
* C=C1c2nc3ccccc3n2C=C(c2ccc(C)cc2)N1c1ccccc1 | 66 µM
* COc1cc(OC)c(/C=C/c2cc[n+](C)c3ccccc23)c(OC)c1 | 3.15 µM
* C=C(CCOC)CCC1CCCCC/C1=N\N(C)C (stereo unspecified) | > 100 µM
